- test_summary: Phase 1 SRD/multiple-rising dose (MRD, Part 2) plasma PK in healthy subjects
- Type: in vivo, human
- condition_parameters: both sexes, human, plasma, oral; 1 mg QD cohort, Study Day 1; mean
measured_endpoint: AUC(0-t) (µg·h/mL)
Write it as a number; the unit µg·h/mL goes unstated.

CC1=CN2CCS(=O)(=O)N=C2C(c2ccc(OC3CCCCC3)cc2)=N1 [COMPOUND A] yielded AUC(0-t) of 0.394

###

- test_summary: Phase 1 single-rising dose (SRD, Part 1) plasma PK in healthy subjects
- Format: in vivo, human
- condition_parameters: both sexes, human, plasma; single oral 0.3 mg; mean, N = 6
measured_endpoint: AUC(0-t) (ng·h/mL)
Write it as a number; the unit ng·h/mL goes unstated.

CC1=CN2CCS(=O)(=O)N=C2C(c2ccc(OC3CCCCC3)cc2)=N1 [COMPOUND A] yielded AUC(0-t) of 126

###

- test_summary: 14-day rat neurotoxicology study: toxicokinetics
- Format: in vivo, Sprague-Dawley rats
- condition_parameters: male, Sprague-Dawley, rat, plasma, po, 100 mg/kg/day, 100 mg/kg/day oral, male, Day 7
measured_endpoint: Cmax (ng/mL)
Write it as a number; the unit ng/mL goes unstated.

"CC1=CN2CCS(=O)(=O)N=C2C(c2ccc(OC3CCCCC3)cc2)=N1" yielded Cmax of 917

###

- test_summary: 13-week NHP GLP toxicity study: toxicokinetics
- Type: in vivo, Monkey (Macaca fascicularis)
- condition_parameters: cynomolgus monkey, plasma, oral; range across all TK sampling days (1st, 29th, 90th dosing)
measured_endpoint: Tmax

"CC1=CN2CCS(=O)(=O)N=C2C(c2ccc(OC3CCCCC3)cc2)=N1" yielded Tmax of 2 to 15 h

###

- test_summary: Phase 1 SRD/multiple-rising dose (MRD, Part 2) plasma PK in healthy subjects
- Assay type: in vivo, human
- condition_parameters: both sexes, human, plasma, oral; 3 mg QD cohort, Study Day 1; mean
measured_endpoint: AUC(0-t)
Kindly format the answer as number then unit.

"CC1=CN2CCS(=O)(=O)N=C2C(c2ccc(OC3CCCCC3)cc2)=N1" yielded AUC(0-t) of 1470 ng·h/mL

###

- test_summary: Phase 1 SRD/multiple-rising dose (MRD, Part 2) plasma PK in healthy subjects
- Assay type: in vivo, human
- condition_parameters: both sexes, human, plasma, oral, 3 mg, 3 mg QD cohort, Study Day 1; mean; read-out: AUC24
measured_endpoint: AUC (ng·h/mL)
Write it as a number; the unit ng·h/mL goes unstated.

"CC1=CN2CCS(=O)(=O)N=C2C(c2ccc(OC3CCCCC3)cc2)=N1" yielded AUC of 480

###

- test_summary: in vivo
- Parameters: species or system Sprague-Dawley rats
- condition_parameters: both sexes, Sprague-Dawley, rat, po
measured_endpoint: NOAEL at 14 days (mg/kg/day)
Write it as a number; the unit mg/kg/day goes unstated.

CC1=CN2CCS(=O)(=O)N=C2C(c2ccc(OC3CCCCC3)cc2)=N1 [COMPOUND A] yielded NOAEL at 14 days of 100

###

- test_summary: Phase 1 single-rising dose (SRD, Part 1) plasma PK in healthy subjects
- Type: in vivo, human
- condition_parameters: both sexes, human, plasma; single oral 5 mg; mean, N = 6; read-out: Cmax
measured_endpoint: Cmax (ng/mL)
Write it as a number; the unit ng/mL goes unstated.

"CC1=CN2CCS(=O)(=O)N=C2C(c2ccc(OC3CCCCC3)cc2)=N1" yielded Cmax of 45.3
